Target: endogenous human PAPPA natively secreted by human cells (A549; 9-7) (human, UniProt Q13219 82-1627)
Sequence (Q13219 82-1627 limits assumed): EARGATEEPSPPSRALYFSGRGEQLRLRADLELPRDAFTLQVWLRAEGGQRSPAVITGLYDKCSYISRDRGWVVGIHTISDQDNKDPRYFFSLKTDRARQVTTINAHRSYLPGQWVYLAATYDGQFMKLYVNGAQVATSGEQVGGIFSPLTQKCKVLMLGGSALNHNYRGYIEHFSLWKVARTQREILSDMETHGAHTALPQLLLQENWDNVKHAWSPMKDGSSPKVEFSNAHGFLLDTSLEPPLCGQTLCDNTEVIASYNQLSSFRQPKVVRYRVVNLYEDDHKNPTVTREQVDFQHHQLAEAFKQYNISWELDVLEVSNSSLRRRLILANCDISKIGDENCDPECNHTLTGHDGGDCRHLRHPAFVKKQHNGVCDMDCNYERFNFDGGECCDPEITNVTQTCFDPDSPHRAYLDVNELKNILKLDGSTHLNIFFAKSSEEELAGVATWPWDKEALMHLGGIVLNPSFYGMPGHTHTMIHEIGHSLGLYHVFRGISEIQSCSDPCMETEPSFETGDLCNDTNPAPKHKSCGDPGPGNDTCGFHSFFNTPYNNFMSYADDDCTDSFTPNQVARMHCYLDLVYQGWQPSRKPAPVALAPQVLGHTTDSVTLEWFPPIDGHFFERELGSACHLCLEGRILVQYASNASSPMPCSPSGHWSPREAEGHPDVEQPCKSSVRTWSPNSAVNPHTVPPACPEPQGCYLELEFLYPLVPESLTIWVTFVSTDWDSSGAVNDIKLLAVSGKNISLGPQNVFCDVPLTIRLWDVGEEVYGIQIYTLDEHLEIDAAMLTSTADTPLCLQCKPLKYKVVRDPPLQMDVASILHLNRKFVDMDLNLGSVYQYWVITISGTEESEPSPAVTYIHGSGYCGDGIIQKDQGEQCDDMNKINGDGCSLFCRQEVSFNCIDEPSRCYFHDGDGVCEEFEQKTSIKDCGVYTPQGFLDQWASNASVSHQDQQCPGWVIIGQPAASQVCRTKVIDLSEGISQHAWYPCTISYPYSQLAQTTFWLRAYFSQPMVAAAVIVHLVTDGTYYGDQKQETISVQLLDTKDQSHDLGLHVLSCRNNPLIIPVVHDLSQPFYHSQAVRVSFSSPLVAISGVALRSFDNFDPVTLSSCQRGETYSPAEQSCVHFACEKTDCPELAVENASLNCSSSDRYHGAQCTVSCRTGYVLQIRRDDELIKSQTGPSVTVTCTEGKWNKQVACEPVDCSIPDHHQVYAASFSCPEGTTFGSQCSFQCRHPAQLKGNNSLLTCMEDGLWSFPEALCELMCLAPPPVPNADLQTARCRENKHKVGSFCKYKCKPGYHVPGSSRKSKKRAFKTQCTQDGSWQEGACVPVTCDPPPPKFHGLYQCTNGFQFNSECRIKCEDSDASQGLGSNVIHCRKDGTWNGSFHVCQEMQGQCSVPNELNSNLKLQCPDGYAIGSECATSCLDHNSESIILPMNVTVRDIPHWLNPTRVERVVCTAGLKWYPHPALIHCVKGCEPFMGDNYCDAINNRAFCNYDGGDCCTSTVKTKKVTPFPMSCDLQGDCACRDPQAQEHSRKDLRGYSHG
Assay: cell-based or functional assay
Assay readout: A549 cells endogenous human PAPP-A pIC50 (A549 pAKT assay) (pIC50)

| Binder | Meas value |
| --- | --- |
| TPP-12681 (antibody, human IgG1, kappa, V domains shown) VH: EVQLVQSGAEVKKPGESLKISCKGSGYSFTSYWTGWVRQAPGKGLEWMGIIYPGGSVARYSPSFQGQVTISADKSISTAYLQWSSLKASDTAVYYCARGPLRSDYPDVWGQGTMVTVSS VL: EIVMTQSPATLSVSPGERATLSCRASQSVGSYLAWYQQKPGQAPRLLIYRGSTRATGIPARFSGSGSGTEFTLTISSLQSEDFAVYYCQQPYVWPITFGGGTKVEIKR | 9.7 |
| TPP-12792 (antibody, human IgG1, kappa, V domains shown) VH: QLQLQESGPGLVKPSETLSLTCTVSGGSISSSDYYWGWIRQPPGKGLEWIGSIFYSGSTYYNPSLKSRVTISVDTSKNQFSLKLSSVTAADTAVYYCARATTSSSADYWGQGTLVTVSS VL: DIQMTQSPSSVSASVGDRVTITCRASQGISRWLAWYQQKPGKAPKLLIYAASSVQSGVPSRFSGSGSGTDFTLTISSLQPEDFATYYCQQGNVPPLTFGGGTKVEIKR | 8.92 |
| TPP-12744 (antibody, human IgG1, kappa, V domains shown, human IgG1/kappa, Fc-disabled (L235A, G237A)) VH: QVQLVQSGAEVKKPGASVKVSCKASGYTFTSYAMHWVRQAPGQRLEWMGWMNAGTGATKSSQKFQGRVTITRDTSASTAYMELSSLRSEDTAVYYCARGPSMETPTTFGMDVWGQGTTVTVSS VL: DIQMTQSPSSVSASVGDRVTITCRASQGISRWLAWYQQKPGKAPKLLIYAASSLQSGVPSRFSGSGSGTDFTLTISSLQPEDFATYYCQQENAYPFTFGGGTKVEIKR | 9.49 |
